Test: NCI Yeast Anticancer Drug Screen. Data for the rad50 strain (AID 155)
Settings: S. cerevisiae rad50 strain growth inhibition; at 50.0 µM
Compounds without any hit were thinned out: in the full panel of roughly 79,000, 15% have a hit. Calls of active or inactive are those of the source. Cut-off read from the data, not from the text of the source: active = growth inhibition above about 70%; inactive = the rest.
Parameter call: string, one of active, inactive

Please share the test call associated with COc1ccc(CCNC2CC3CCC2(C)C3(C)C)cc1OC (stereo not drawn) .
inactive

// repeat for "C1CC[N-]CC1.CC(=N\O)/C(C)=N/O.CC(=N\O)/C(C)=N/O.C[C-]=O.[Co+2]" and report
inactive

Ok, now COc1ccc([As]=O)cc1[N+](=O)[O-] (stereo not drawn)
inactive

Same question for "O=[N+]([O-])c1cc(Cl)ccc1O" please.
inactive

Now try "c1cc[n+]2c3c(sc2c1)CCC3" .
inactive

Next up: CC(C)N1CC(COc2cccc3ccccc23)OP1(=O)N(CCCl)CCCl (stereo not drawn)
active

Continuing:
Hello, I am checking results. What call was entered for "CN(C)c1ccc(C=Cc2ccc([N+](=O)[O-])cc2)cc1.[C-]#[O+].[C-]#[O+].[C-]#[O+].[Cr]" ?
inactive

Field entry: "c1ccc2c(c1)[Se]c1ccccc1[Se]2"
inactive

Try this compound next: C=CCN(CC=C)C(Cc1ccccc1)c1ccccc1 (stereo not drawn)
inactive

Ok, now "O=C1C=CC(=O)c2c(O)cccc21"
inactive

# iterate: CC(C)CCN(CCC(C)C)CC(O)c1ccc(Br)cc1 (stereo not drawn)
inactive

For CCC(=O)N(c1ccccc1)C(C)CN1CCC(O)(c2ccccc2)CC1 (stereo not drawn) then?
inactive

And the next one, "CCCN=Cc1ccccc1O.CCCN=Cc1ccccc1O.[Ni]" ?
inactive

Check CC1CC[N-]C(C)C1.CN(C)C=O.[Cl][Pt][Cl] (stereo not drawn) too.
active

For COC(=O)C1=C(C(=O)OC)C2(OC(C)=O)c3ccccc3-c3ccccc3C12 (stereo not drawn) then?
active

Item: NCC(O)c1ccc2c(c1)OCO2 (stereo not drawn)
inactive

Lookup "Clc1ccccc1C#[C][Hg][C]#Cc1ccccc1Cl"
inactive

What would you report for "O=C1NC(=S)NC(=O)C1=Cc1cccc2cc3ccccc3cc12" ?
active

Now this one: COc1ccc2c(c1O)C13CCN(C)C(C2)C1CCC(O)C3 (stereo not drawn)
inactive

Please answer likewise for O=C(O)/C=C\c1c[nH]c2ccccc12 (tested in a mixture with another compound)
inactive

What do you get for "CCCCCCC(=O)[O][Hg][c]1ccccc1" ?
active

And the next one, "[Au+].[Au+].[Au+].[c-]1nccn1Cc1ccccc1.[c-]1nccn1Cc1ccccc1.[c-]1nccn1Cc1ccccc1" ?
active

Field entry: "COc1ccccc1N"
inactive

Proceed to "C/C=C/CC1(c2ccccc2)C(=O)NC(=S)NC1=O"
inactive

Next entry: OC1C2[C@@H](O)CCCN2C[C@@H](O)[C@H]1O (stereo partly drawn)
inactive

"CCCCN=C=S" ?
inactive

Also "CNC(=O)Oc1cccc(N=CN(C)C)c1" , if possible.
inactive
